Molecular target: human His-PIM2 [23-299] (Homo sapiens, UniProt Q9P1W9)
Construct: purified human His-PIM2 [23-299] enzyme; His (N); host or cells: E. coli
Sequence (Q9P1W9 23-299): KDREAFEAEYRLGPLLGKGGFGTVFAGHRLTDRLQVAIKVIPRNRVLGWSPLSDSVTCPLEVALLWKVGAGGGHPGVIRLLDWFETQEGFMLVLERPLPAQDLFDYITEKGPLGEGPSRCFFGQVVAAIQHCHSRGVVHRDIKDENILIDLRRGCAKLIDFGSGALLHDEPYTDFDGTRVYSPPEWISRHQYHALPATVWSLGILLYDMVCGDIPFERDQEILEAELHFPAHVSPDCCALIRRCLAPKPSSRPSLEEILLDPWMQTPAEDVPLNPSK
Test: PIM2 in-vitro mobility shift assay (Caliper LC3000, FL-Ahx-Bad phosphorylation)
Assay type: biochemical
Details: 1.5 h; percent inhibition at 0.3 uM compound; read-out: PIM2 % I at 0.3 uM
From the text: PIM2 In-Vitro Mobility Shift Assay One may determine the activity of purified human His-PIM2 [23-299] enzyme in-vitro using a mobility shift assay on a Caliper LC3000 reader (Caliper, Mass.), which measures fluorescence of a phosphorylated and unphosphorylated FL-Ahx-Bad (FITC-(AHX)RSRHSSYPAGT-COOH, Primm 200606-00289, Primm Biotech, Mass.) and calculates a ratiometric value to determine percent turnover. […]
Where a name gives a salt, the structure may show the parent alone.
Readout: inhibition at 0.3 µM (%)
Numbers only, in %.

Before answering, review these 4 worked examples.
O=C1NC(=O)/C(=C/c2ccccc2N2CCN(C(=O)c3ccc(CN4CCNCC4)cc3)CC2)S1 [Example 109, hydrochloride]: 65.8
C[C@@H]1CN(c2c(Cl)cccc2/C=C2\SC(=O)NC2=O)C[C@H](C)N1: 69.4
O=C1NC(=O)/C(=C/c2ccc3[nH]ccc3c2)S1: 30
O=C1NC(=O)/C(=C/c2ccccc2N2CCCN(C(=O)C3CCCNC3)CC2)S1 (stereo not drawn) [Example 102, hydrochloride]: 91.9

# batch size: 3; output inhibition at 0.3 µM per entry
1. COc1cc(/C=C2\SC(=O)NC2=O)c(N2CCC(N(C)C)CC2)cc1OC
2. CN(C)C1CCN(c2ccc([N+](=O)[O-])cc2/C=C2\SC(=O)NC2=O)C1 (stereo not drawn) [Example 56, hydrochloride]
3. O=C(CN1CC[S+]([O-])CC1)N[C@H]1CCN(c2c(Cl)cccc2/C=C2\SC(=O)NC2=O)C1

1: 73.1; 2: 33.5; 3: 75.2

# batch size: 3; output inhibition at 0.3 µM per entry
1. COc1cc(/C=C2\SC(=O)NC2=O)c(N2CC[C@@H](N)C2)cc1OC [Example 100, hydrochloride]
2. Cn1ccnc1C(=O)N[C@H]1CCN(c2c(Cl)cccc2/C=C2\SC(=O)NC2=O)C1
3. CN(C)C1CCN(c2ccc(N)cc2/C=C2\SC(=O)NC2=O)C1 (stereo not drawn)

1. 93.9
2. 10.8
3. 13.5

Requested read-out: inhibition at 0.3 µM. Entry: COc1ccc(OCCCNC(C)C)c(C=C2SC(=O)NC2=O)c1
31.7

Values compiled from patent US8901307B2.
